Origin of values: patent US8951999B2

Target: recombinant human mPGES-1 (Homo sapiens, UniProt O14684)
Sequence (O14684 1-152): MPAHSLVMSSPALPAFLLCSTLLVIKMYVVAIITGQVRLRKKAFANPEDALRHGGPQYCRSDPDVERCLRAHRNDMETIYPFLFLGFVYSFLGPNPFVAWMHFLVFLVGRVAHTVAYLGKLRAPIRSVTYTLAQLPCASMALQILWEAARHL
Assay: Assay B: mPGES-1 enzyme assay (modified)
Type: biochemical
Conditions: biological assay B (all other compounds); PGH2 final conc. 2 μM, HTRF; read-out: mPGES-1 inhibitory effect IC50
Measured Endpoint: pIC50
pIC50 here is simply -log10 of the concentration when that concentration is written in mol/L.

- Compound: "CC(C)C(O)C(=O)NCc1ccc(Cl)c(C(=O)Nc2ccc(OCC(F)F)c(C(=O)Nc3ccc(Br)cc3)c2)c1 (stereo not shown)"
  pIC50: 8.05
- Compound: "CC(C)(C(=O)NCc1ccc(Cl)c(C(=O)Nc2ccc(OCC(F)F)c(C(=O)Nc3ccc(Br)cc3)c2)c1Cl)C(F)(F)F"
  pIC50: 8.22
- Compound: "CC(C)(C(=O)NCc1ccc(Cl)c(C(=O)Nc2ccc(OCC(F)F)c(C(=O)NCC(F)(F)C(F)(F)F)c2)c1)C(F)(F)F"
  pIC50: 8.00
- Compound: "CC1(C(=O)NCc2ccc(Cl)c(C(=O)Nc3ccc(OCC(F)F)c(C(=O)Nc4ccc(Br)cc4)c3)c2)CCCO1 (stereo not shown)"
  pIC50: 8.22
- Compound: "COc1cc(Cl)ccc1NC(=O)c1cc(NC(=O)c2cc(CNC(=O)C(C)(C)C(F)(F)F)ccc2Cl)ccc1OCC(F)F"
  pIC50: 8.22
- Compound: "CC(C)(C(=O)NCc1ccc(Cl)c(C(=O)Nc2ccc(OCC(F)F)c(C(=O)NC3CCC(C(F)F)CC3)c2)c1)C(F)(F)F (stereo not shown)"
  pIC50: 8.22

Turning to the following compound.
Look up pIC50 for this compound: `CC(C)(C(=O)NCc1ccc(Cl)c(C(=O)Nc2ccc(OCC(F)F)c(C(=O)NC3CCSCC3)c2)c1)C(F)(F)F`
8.05

###

molecular target: recombinant human mPGES-1 (Homo sapiens, UniProt O14684); test: Assay A: mPGES-1 enzyme assay (HTRF detection of PGE2); assay type: biochemical; details: biological assay A (compounds 1-41, 54, 55, 62, 73); PGE2 formation from PGH2, HTRF; read-out: mPGES-1 inhibitory effect IC50
pIC50 listing for selected compounds.
pIC50 here is simply -log10 of the concentration when that concentration is written in mol/L.

- Compound: "CC(C)(C)C(=O)NCc1ccc(Cl)c(C(=O)Nc2ccc(OCC(F)F)c(C(=O)NCC3CCC3)c2)c1"
  Target Or System: "recombinant human mPGES-1 (Homo sapiens, UniProt O14684)"
  pIC50: 8.52
- Compound: "COc1ccc(NC(=O)c2cc(CNC(=O)c3cccnc3Cl)ccc2Cl)cc1C(=O)Nc1ccc(Br)cc1"
  Target Or System: "recombinant human mPGES-1 (Homo sapiens, UniProt O14684)"
  pIC50: 8.70
- Compound: "COc1ccc(NC(=O)c2cc(CNC(=O)C(C)C(F)(F)F)ccc2Cl)cc1C(=O)Nc1ccc(Br)cc1 (stereo not drawn)"
  Target Or System: "recombinant human mPGES-1 (Homo sapiens, UniProt O14684)"
  pIC50: 8.70
- Compound: "CC(C)(C)C(=O)NCc1ccc(Cl)c(C(=O)Nc2ccc(OCC(F)F)c(C(=O)NCC3CC3)c2)c1"
  Target Or System: "recombinant human mPGES-1 (Homo sapiens, UniProt O14684)"
  pIC50: 7.89
- Compound: "CN(C)c1ccc(NC(=O)c2cc(CNC(=O)C(C)(C)C)ccc2Cl)cc1C(=O)N[C@H]1CC[C@H](C(F)(F)F)CC1"
  Target Or System: "recombinant human mPGES-1 (Homo sapiens, UniProt O14684)"
  pIC50: 7.96

Look up pIC50 for this compound: `COc1ccc(NC(=O)c2cc(CNC(=O)C(C)(C)C)ccc2Cl)cc1C(=O)Nc1ccc(Br)cc1`
9.00

Look up pIC50 for this compound: `CCC(C)(CC)C(=O)NCc1ccc(Cl)c(C(=O)Nc2ccc(OC)c(C(=O)Nc3ccc(Br)cc3)c2)c1`
8.70

Look up pIC50 for this compound: `CC(C)(C)C(=O)NCc1ccc(Cl)c(C(=O)Nc2ccc(Cl)c(C(=O)Nc3ccc(Br)cc3)c2)c1`
7.66

Look up pIC50 for this compound: `CC(C)(C)C(=O)NCc1ccc(Cl)c(C(=O)Nc2ccc(OCC(F)(F)F)c(C(=O)N[C@H]3CC[C@H](C(F)(F)F)CC3)c2)c1`
8.40

Look up pIC50 for this compound: `COc1ccc(NC(=O)c2cc(CNC(=O)C(C)(C)C)ccc2Cl)cc1C(=O)N[C@H]1CC[C@H](C(C)(C)C)CC1`
8.70

Look up pIC50 for this compound: COc1ccc(NC(=O)c2cc(CNC(=O)C3CCCCC3C)ccc2Cl)cc1C(=O)Nc1ccc(Br)cc1 (stereo not drawn)
8.70

Look up pIC50 for this compound: `CC(C)(C)C(=O)NCc1ccc(Cl)c(C(=O)Nc2ccc(OCC(F)F)c(C(=O)NCC#Cc3ccccc3)c2)c1`
8.30

Look up pIC50 for this compound: `COc1ccc(NC(=O)c2cc(CNS(=O)(=O)C3CC3)ccc2Cl)cc1C(=O)Nc1ccc(Br)cc1`
8.22

Look up pIC50 for this compound: `COc1ccc(NC(=O)c2cc(CNC(=O)C(C)(C)C(F)(F)F)ccc2Cl)cc1C(=O)Nc1ccc(Br)cc1`
8.70
